Species: Homo sapiens
assay-remarks: Compound was evaluated for inhibition of ex vivo ADP mediated platelet aggregation of human gel filtered platelets
Format: functional
recorded-metric: pIC50
Please express pIC50 as -log10 of the molar concentration.

Incoming: What pIC50 value was documented for this compound, O=C(O)CCNC(=O)c1ccc2c(c1)C(=O)N(CCC1CCNCC1)C2 ?
Outgoing: 7.60

Incoming: What pIC50 value was documented for this compound, CCCCS(=O)(=O)N[C@@H](CNC(=O)c1csc2c1C(=O)N(CCC1CCNCC1)CC2)C(=O)O ?
Outgoing: 4.48

Incoming: What pIC50 value was documented for this compound, O=C(O)CCCC(=O)c1cc2c(s1)CCN(CCC1CCNCC1)C2=O ?
Outgoing: 6.59

Incoming: What pIC50 value was documented for this compound, C[C@H](CC(=O)O)NC(=O)c1cc2c(s1)CCN(CCC1CCNCC1)C2=O ?
Outgoing: 6.66

Incoming: What pIC50 value was documented for this compound, O=C(NCc1ccccc1)N[C@@H](CNC(=O)c1cc2c(s1)CCN(CCC1CCNCC1)C2=O)C(=O)O ?
Outgoing: 7.60

Incoming: What pIC50 value was documented for this compound, CCCCS(=O)(=O)N[C@@H](CNC(=O)c1cc2c(s1)CCN(CCC1CCNCC1)C2=O)C(=O)O ?
Outgoing: 8.10

Incoming: What pIC50 value was documented for this compound, O=C(NC[C@H](NS(=O)(=O)c1ccccc1)C(=O)O)c1cc2c(s1)CCN(CCC1CCNCC1)C2=O ?
Outgoing: 8.15

Incoming: What pIC50 value was documented for this compound, O=C(O)CCNC(=O)c1cc2c(s1)CCN(CCC1CCNCC1)C2=O ?
Outgoing: 6.82

Incoming: What pIC50 value was documented for this compound, O=C(NC[C@H](NS(=O)(=O)c1cccnc1)C(=O)O)c1cc2c(s1)CCN(CCC1CCNCC1)C2=O ?
Outgoing: 7.89

Source listed as ChEMBL document CHEMBL1128934.
